Tested on: panel of cancer cell lines
Experiment: Cell viability (CellTiter-Glo) dose-response across cancer cell line panel;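 also: after 72 h compound incubation with CellTiter-Glo ATP readout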
Type: cell-based, human
Settings: Homo sapiens, PF-382, PF-382
metric name: EC50 (µM)
Field format: number, assumed µM, no unit text.

Before answering, review these 2 worked examples.
{"smiles repr": "CC(C)C[C@H](NC(=O)[C@H](Cc1ccccc1)NC(=O)c1cnccn1)B(O)O", "units of measure": "µM", "EC50": 0.00273}
{"smiles repr": "NS(=O)(=O)OC[C@@H]1C[C@@H](n2ccc3c(N[C@H]4CCc5ccccc54)ncnc32)C[C@@H]1O", "units of measure": "µM", "EC50": 0.216}

In the following, a different compound is considered.
# get_value(readout='EC50', item= COCc1ccccc1NCc1ccc([C@H]2[C@@H](O)CCCc3cncn32)c(-c2ccccc2Cl)c1 )
0.262

---

Test system: panel of cancer cell lines
Test: Cell viability (CellTiter-Glo) dose-response across cancer cell line panel;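 also: after 72 h compound incubation with CellTiter-Glo ATP readout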
Assay type: cell-based, human
Conditions: Homo sapiens, SUM44PE cells
Description: Next, we explored the effect of CSN5 inhibition on the viability of cancer cells. […] A standardized CellTiter-Glo Assay (Promega #G7570) based on the quantification of ATP was applied according to the manufacturer's protocol to measure the amount of viable cells in culture. […] EC50 values were calculated from the plot of percentage of inhibition versus inhibitor concentration using the nonlinear regression analysis software Origin 7.5SR6 (OriginLab Corp.).
metric name: pEC50
// scale note: pEC50 = -log10(conc_M); give the bare number

Recorded pEC50 of COCc1ccccc1NCc1ccc([C@@H]2[C@H](O)CCCc3cncn32)c(-c2ccccc2Cl)c1 [CSN5i-2e] , please.
4.58

---

System: panel of cancer cell lines
Assay: Cell viability (CellTiter-Glo) dose-response across cancer cell line panel;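 also: after 72 h compound incubation with CellTiter-Glo ATP readout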
Assay type: cell-based, human
Conditions: Homo sapiens, cell line KS-1
metric name: EC50

Kindly state the measured EC50 obtained for CC(C)C[C@H](NC(=O)[C@H](Cc1ccccc1)NC(=O)c1cnccn1)B(O)O [Bortezomib] with panel of cancer cell lines.
10.1 nM

---

Test system: panel of cancer cell lines
Test: Cell viability (CellTiter-Glo) dose-response across cancer cell line panel;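 also: after 72 h compound incubation with CellTiter-Glo ATP readout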
Type: cell-based, human
Conditions: Homo sapiens, Rh41, RH-41 cells
metric name: pEC50
Worth noting: pEC50 values are minus log10 of concentrations stated in mol/L.

For panel of cancer cell lines, provide pEC50 of COCc1ccccc1NCc1ccc([C@@H]2[C@H](O)CCCc3cncn32)c(-c2ccccc2Cl)c1 please.
5.35

---

Below: a set of entries, each annotated with reported pEC50.
Tested on: panel of cancer cell lines
Assay: Cell viability (CellTiter-Glo) dose-response across cancer cell line panel;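 also: after 72 h compound incubation with CellTiter-Glo ATP readout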
Format: cell-based, human
Details: Homo sapiens, KO52
Units for pEC50: none; it is -log10 of a concentration expressed in mol/L.

{"smiles repr": "COCc1ccccc1NCc1ccc([C@H]2[C@@H](O)CCCc3cncn32)c(-c2ccccc2Cl)c1", "pEC50": 6.07}

Here is the next item to consider.
Given the compound CC(C)C[C@H](NC(=O)[C@H](Cc1ccccc1)NC(=O)c1cnccn1)B(O)O , what is its reported pEC50?
8.62

---

Test system: panel of cancer cell lines
Assay: Cell viability (CellTiter-Glo) dose-response across cancer cell line panel;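 also: after 72 h compound incubation with CellTiter-Glo ATP readout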
Type: cell-based, human
Conditions: Homo sapiens, cell line NCI-H2330
metric name: EC50 (nM)
Write the answer as a number in nM, unit excluded.

Recorded EC50 of CC(C)C[C@H](NC(=O)[C@H](Cc1ccccc1)NC(=O)c1cnccn1)B(O)O , please.
32.2
